# Target: extracytoplasmic domain of M. tuberculosis PknB (ED-PknB, PASTA domains) (Mycobacterium tuberculosis)
# Construct: GST (N, cleaved yes); made in house; host or cells: Escherichia coli BL21 (DE3)
# Sequence (P9WI81 354-626): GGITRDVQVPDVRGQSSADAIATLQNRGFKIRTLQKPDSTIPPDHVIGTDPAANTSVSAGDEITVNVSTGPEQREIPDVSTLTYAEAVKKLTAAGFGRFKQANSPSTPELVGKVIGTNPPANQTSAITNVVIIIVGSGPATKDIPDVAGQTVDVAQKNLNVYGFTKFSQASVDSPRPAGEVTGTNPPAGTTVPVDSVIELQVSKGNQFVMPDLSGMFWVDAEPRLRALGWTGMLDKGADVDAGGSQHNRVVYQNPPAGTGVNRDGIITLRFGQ
# Measurement notes: Surface plasmon resonance (Biacore) binding of synthetic muropeptides to immobilized ED-PknB
# Study conditions: Table S1; SPR, two-state binding model, 25°C
Listed compounds paired with reported ka2
Measured quantity: ka2

CC(=O)N[C@H]1C(O)O[C@H](CO)[C@@H](O)[C@@H]1O[C@H](C)C(=O)N[C@@H](C)C(=O)N[C@H](CCC(=O)N[C@@H](CCC[C@@H](N)C(=O)O)C(=O)N[C@H](C)C(=O)N[C@H](C)C(N)=O)C(N)=O (stereo partly drawn) [MPP-DAP (amide/acid) 7] :: 1.4 10^-3 s^-1
CC(=O)N[C@H]1C(O)O[C@H](CO)[C@@H](O)[C@@H]1O[C@H](C)C(=O)N[C@@H](C)C(=O)N[C@H](CCC(=O)N[C@@H](CCC[C@@H](N)C(N)=O)C(=O)N[C@H](C)C(N)=O)C(N)=O (stereo partly drawn) [MTrP-DAP (amide/amide) 6c] :: 41.5 10^-3 s^-1
CC(=O)N[C@H]1C(O)O[C@H](CO)[C@@H](O)[C@@H]1O[C@H](C)C(=O)N[C@@H](C)C(=O)N[C@H](CCC(=O)N[C@@H](CCC[C@@H](N)C(=O)O)C(N)=O)C(N)=O (stereo partly drawn) [MTP-DAP (amide/acid) 5] :: 1.64 10^-3 s^-1
CC(=O)N[C@H]1C(O)O[C@H](CO)[C@@H](O)[C@@H]1O[C@H](C)C(=O)N[C@@H](C)C(=O)N[C@H](CCC(=O)N[C@@H](CCC[C@@H](N)C(=O)O)C(=O)N[C@H](C)C(N)=O)C(N)=O (stereo partly drawn) [MTrP-DAP (amide/acid) 6a] :: 1.83 10^-3 s^-1
CC(=O)N[C@H](CCC[C@H](NC(=O)CC[C@@H](NC(=O)[C@H](C)NC(=O)[C@@H](C)O[C@H]1[C@H](O)[C@@H](CO)OC(O)[C@@H]1NC(C)=O)C(N)=O)C(=O)N[C@H](C)C(N)=O)C(=O)O (stereo partly drawn) [MTrP-DAP(amide/acid)NHAc 6e] :: 6.6 10^-3 s^-1
CC(=O)N[C@H]1C(O)O[C@H](CO)[C@@H](O)[C@@H]1O[C@H](C)C(=O)N[C@@H](C)C(=O)N[C@H](CCC(=O)N[C@@H](CCC[C@@H](N)C(=O)O)C(=O)N[C@H](C)C(N)=O)C(=O)O (stereo partly drawn) :: 2.0 10^-3 s^-1

----------
# Target: extracytoplasmic domain of M. tuberculosis PknB (ED-PknB, PASTA domains) (Mycobacterium tuberculosis)
# Construct: GST (N, cleaved yes); made in house; host or cells: Escherichia coli BL21 (DE3)
# Measurement notes: Surface plasmon resonance (Biacore) binding of synthetic muropeptides to immobilized ED-PknB
# Study conditions: Table S1; SPR, two-state binding model, 25°C
Listed molecules paired with reported kd1
Measured quantity: kd1

CC(=O)N[C@H]1C(O)O[C@H](CO)[C@@H](O)[C@@H]1O[C@H](C)C(=O)N[C@@H](C)C(=O)N[C@H](CCC(=O)N[C@@H](CCC[C@@H](N)C(N)=O)C(=O)N[C@H](C)C(N)=O)C(N)=O (stereo partly drawn) [MTrP-DAP (amide/amide) 6c] :: 57.8 10^-3 s^-1
CC(=O)N[C@H]1C(O)O[C@H](CO)[C@@H](O)[C@@H]1O[C@H](C)C(=O)N[C@@H](C)C(=O)N[C@H](CCC(=O)N[C@@H](CCC[C@@H](N)C(=O)O)C(=O)N[C@H](C)C(=O)N[C@H](C)C(N)=O)C(N)=O (stereo partly drawn) [MPP-DAP (amide/acid) 7] :: 161.5 10^-3 s^-1
CC(=O)N[C@H]1C(O)O[C@H](CO)[C@@H](O)[C@@H]1O[C@H](C)C(=O)N[C@@H](C)C(=O)N[C@H](CCC(=O)N[C@@H](CCC[C@@H](N)C(=O)O)C(=O)N[C@H](C)C(N)=O)C(N)=O (stereo partly drawn) [MTrP-DAP (amide/acid) 6a] :: 100.7 10^-3 s^-1
CC(=O)N[C@H](CCC[C@H](NC(=O)CC[C@@H](NC(=O)[C@H](C)NC(=O)[C@@H](C)O[C@H]1[C@H](O)[C@@H](CO)OC(O)[C@@H]1NC(C)=O)C(N)=O)C(=O)N[C@H](C)C(N)=O)C(=O)O (stereo partly drawn) [MTrP-DAP(amide/acid)NHAc 6e] :: 106 10^-3 s^-1
CC(=O)N[C@H]1C(O)O[C@H](CO)[C@@H](O)[C@@H]1O[C@H](C)C(=O)N[C@@H](C)C(=O)N[C@H](CCC(=O)N[C@@H](CCC[C@@H](N)C(=O)O)C(=O)N[C@H](C)C(N)=O)C(=O)O (stereo partly drawn) :: 168.7 10^-3 s^-1
CC(=O)N[C@H]1C(O)O[C@H](CO)[C@@H](O)[C@@H]1O[C@H](C)C(=O)N[C@@H](C)C(=O)N[C@H](CCC(=O)N[C@@H](CCC[C@@H](N)C(=O)O)C(N)=O)C(N)=O (stereo partly drawn) [MTP-DAP (amide/acid) 5] :: 172.9 10^-3 s^-1
